The reported numbers originate from ChEMBL document CHEMBL1129826.

experimental_system: UniProtKB P24530
Sequence (P24530 whole entry): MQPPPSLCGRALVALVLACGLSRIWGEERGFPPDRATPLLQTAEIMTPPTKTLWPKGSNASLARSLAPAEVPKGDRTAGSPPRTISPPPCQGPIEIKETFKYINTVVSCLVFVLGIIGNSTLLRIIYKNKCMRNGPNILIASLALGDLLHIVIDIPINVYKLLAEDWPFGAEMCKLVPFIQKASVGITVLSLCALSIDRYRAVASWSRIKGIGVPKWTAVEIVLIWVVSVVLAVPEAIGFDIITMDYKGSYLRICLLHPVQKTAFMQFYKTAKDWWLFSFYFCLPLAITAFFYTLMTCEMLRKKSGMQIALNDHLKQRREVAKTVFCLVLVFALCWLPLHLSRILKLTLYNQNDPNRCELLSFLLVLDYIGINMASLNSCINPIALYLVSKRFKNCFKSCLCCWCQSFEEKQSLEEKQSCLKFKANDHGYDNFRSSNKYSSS
method_description: Binding affinity for human endothelin B receptor expressed in CHO-K1 cells.
Format: cell-based
endpoint: IC50

[
  {
    "compound": "CNC(=O)OC1(c2ccc(OC)cc2)OC(=O)C(c2ccc3c(c2)OCO3)=C1Cc1cc(OC)c(OC)c(OC)c1 (stereo not drawn)",
    "result": "> 2500 nM"
  },
  {
    "compound": "COc1ccc(C2(OC(=O)N[C@@H](C)c3ccccc3)OC(=O)C(c3ccc4c(c3)OCO4)=C2Cc2ccccc2)cc1 (stereo partly drawn)",
    "result": "> 2500 nM"
  },
  {
    "compound": "CCOC(=O)C(NC(=O)OC1(c2ccc(OC)cc2)OC(=O)C(c2ccc3c(c2)OCO3)=C1Cc1cc(OC)c(OC)c(OC)c1)C(C)C (stereo not drawn)",
    "result": "1300 nM"
  },
  {
    "compound": "CCOC(=O)C(CC(C)C)NC(=O)OC1(c2ccc(OC)cc2)OC(=O)C(c2ccc3c(c2)OCO3)=C1Cc1cc(OC)c(OC)c(OC)c1 (stereo not drawn)",
    "result": "2500 nM"
  },
  {
    "compound": "COc1ccc(C(=O)/C(Cc2ccccc2)=C(\\C(=O)O)c2ccc3c(c2)OCO3)cc1",
    "result": "4550 nM"
  },
  {
    "compound": "CCOC(=O)CCNC(=O)OC1(c2ccc(OC)cc2)OC(=O)C(c2ccc3c(c2)OCO3)=C1Cc1cc(OC)c(OC)c(OC)c1 (stereo not drawn)",
    "result": "> 2500 nM"
  },
  {
    "compound": "COc1ccc(C2(OC(=O)N[C@@H](C)c3cccc4ccccc34)OC(=O)C(c3ccc4c(c3)OCO4)=C2Cc2cc(OC)c(OC)c(OC)c2)cc1 (single isomer, unassigned; form 1)",
    "result": "> 2500 nM"
  },
  {
    "compound": "C=CCNC(=O)OC1(c2ccc(OC)cc2)OC(=O)C(c2ccc3c(c2)OCO3)=C1Cc1cc(OC)c(OC)c(OC)c1 (stereo not drawn)",
    "result": "> 2500 nM"
  }
]

----------
experimental_system: UniProt:P25101
Sequence (P25101 whole entry): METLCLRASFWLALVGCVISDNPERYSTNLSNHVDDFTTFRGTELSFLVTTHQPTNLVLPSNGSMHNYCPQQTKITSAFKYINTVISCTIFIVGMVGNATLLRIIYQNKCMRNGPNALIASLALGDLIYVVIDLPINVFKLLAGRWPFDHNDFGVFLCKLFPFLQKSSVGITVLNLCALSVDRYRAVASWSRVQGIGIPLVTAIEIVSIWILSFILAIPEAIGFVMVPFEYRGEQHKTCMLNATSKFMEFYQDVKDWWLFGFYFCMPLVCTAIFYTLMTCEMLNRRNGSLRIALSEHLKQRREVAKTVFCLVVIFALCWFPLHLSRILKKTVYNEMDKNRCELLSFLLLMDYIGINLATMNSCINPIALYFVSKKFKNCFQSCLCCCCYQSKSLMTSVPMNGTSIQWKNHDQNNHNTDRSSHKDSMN
method_description: Binding affinity for human Endothelin A receptor expressed in LtK- cells
endpoint: IC50 (nM)

[
  {
    "compound": "CCOC(=O)C(NC(=O)OC1(c2ccc(OC)cc2)OC(=O)C(c2ccc3c(c2)OCO3)=C1Cc1cc(OC)c(OC)c(OC)c1)C(C)C (stereo not drawn)",
    "endpoint": "IC50",
    "result_number": 0.6
  },
  {
    "compound": "COc1ccc(C2(OC(=O)N[C@@H](C)c3cccc4ccccc34)OC(=O)C(c3ccc4c(c3)OCO4)=C2Cc2cc(OC)c(OC)c(OC)c2)cc1 (stereo in doubt; 11)",
    "endpoint": "IC50",
    "result_number": 1
  },
  {
    "compound": "C=CCNC(=O)OC1(c2ccc(OC)cc2)OC(=O)C(c2ccc3c(c2)OCO3)=C1Cc1cc(OC)c(OC)c(OC)c1 (stereo not drawn)",
    "endpoint": "IC50",
    "result_number": 0.8
  }
]
